# protein stability index values compiled below
B1: TMEM106C (parent)
chain: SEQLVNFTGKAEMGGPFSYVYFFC

- Variants of: B1
- RUN_DESCRIPTION: protein stability index of a GFP-peptide fusion (GPS, HEK-293T) (PSI 1-6); higher = more stable;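 note: lentivirally expressed fusions sorted by FACS into six bins by GFP to DsRed ratio, PSI derived from sequencing read proportions per bin multiplied by bin number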
- SETUP_CONDITIONS: c terminus: a fixed tail appended
The answer should be a number; do not append a unit.

Some solved entries appear below for comparison.
changes=Q3G outcome_measure="protein stability index" numeric_value=3.44
changes=G14P outcome_measure="protein stability index" numeric_value=3.48
changes=V20T outcome_measure="protein stability index" numeric_value=2.77

### Prompt Note down protein stability index recorded for "F17E"
### Response 1.97

### Prompt Check the records and state protein stability index for "E12R"
### Response 3.52

### Prompt Look up protein stability index of "G14R" and report it.
### Response 2.42
